A collection of molecules and their measured Ratio
test system: Human immunodeficiency virus 1; experiment: Resistance index, ratio of ID50 for recombinant HIV-1 His-tagged reverse transcriptase p66/p51 K103N mutant to ID50 for recombinant wild type HIV-1 reverse transcriptase His-tagged p66/p51
measurement.name: Ratio

molecule="COC(c1nc(NC2CCCC2)[nH]c(=O)c1C)c1c(F)cccc1Cl (stereo not drawn)" recorded_result=3
molecule=CO[C@@H](c1nc(SC(C)C)[nH]c(=O)c1C)c1c(F)cccc1Cl recorded_result=17
molecule="COC(c1nc(SC2CCCC2)[nH]c(=O)c1C)c1c(Cl)cccc1Cl (stereo not drawn)" recorded_result=131
molecule="CCCNc1nc(C(OC)c2c(Cl)cccc2Cl)c(C)c(=O)[nH]1 (stereo not drawn)" recorded_result=13
molecule=CCCN(C)c1nc([C@H](OC)c2c(Cl)cccc2Cl)c(C)c(=O)[nH]1 recorded_result=2
molecule="COC(c1nc(SC(C)C)[nH]c(=O)c1C)c1c(Cl)cccc1Cl (stereo not drawn)" recorded_result=158
molecule="COC(c1nc(SC(C)C)[nH]c(=O)c1C)c1c(F)cccc1Cl (stereo not drawn)" recorded_result="18 to 20"
molecule="COC(c1nc(NC(C)C)[nH]c(=O)c1C)c1c(F)cccc1F (stereo not drawn)" recorded_result=11
molecule="CCCN(C)c1nc(C(OC)c2c(Cl)cccc2Cl)c(C)c(=O)[nH]1 (stereo not drawn)" recorded_result=2
molecule="CCC(C)Sc1nc(C(OC)c2c(F)cccc2F)c(C)c(=O)[nH]1 (stereo not drawn)" recorded_result=500
molecule=Cc1c([C@@H](C)c2c(F)cccc2F)nc(SC2CCCC2)[nH]c1=O recorded_result=3
molecule="CCCN(C)c1nc(C(OC)c2c(F)cccc2F)c(C)c(=O)[nH]1 (stereo not drawn)" recorded_result=4
molecule="CCC(C)Sc1nc(C(OC)c2c(Cl)cccc2Cl)c(C)c(=O)[nH]1 (stereo not drawn)" recorded_result=247

* * *

test system: Human immunodeficiency virus 1; assay: Resistance index, ratio of EC50 for HIV-1 harboring reverse transcriptase Y188L mutant to EC50 for wild type HIV-1 NL4-3; format: functional
Measured Ratio EC50 by item
measurement.name: Ratio EC50

compound=CCCN(C)c1nc([C@H](OC)c2c(Cl)cccc2Cl)c(C)c(=O)[nH]1 measurement_name="Ratio EC50" recorded_result=22
compound="COC(c1nc(SC(C)C)[nH]c(=O)c1C)c1c(F)cccc1F (stereo not drawn)" measurement_name="Ratio EC50" recorded_result=171
compound="COC(c1nc(NC2CCCC2)[nH]c(=O)c1C)c1c(Cl)cccc1Cl (stereo not drawn)" measurement_name="Ratio EC50" recorded_result=540
compound="CCC(C)Sc1nc(C(OC)c2c(Cl)cccc2Cl)c(C)c(=O)[nH]1 (stereo not drawn)" measurement_name="Ratio EC50" recorded_result=6444
compound="COC(c1nc(NC(C)C)[nH]c(=O)c1C)c1c(F)cccc1F (stereo not drawn)" measurement_name="Ratio EC50" recorded_result=471

* * *

system: Human immunodeficiency virus 1; experiment: Resistance index, ratio of ID50 for recombinant HIV-1 His-tagged reverse transcriptase p66/p51 K103N mutant to ID50 for recombinant wild type HIV-1 reverse transcriptase His-tagged p66/p51
measurement.name: Ratio

compound="CCC(C)Sc1nc(C(OC)c2c(F)cccc2Cl)c(C)c(=O)[nH]1 (stereo unspecified)" assayed_target="Human immunodeficiency virus 1" recorded_result=13
compound="CCCNc1nc(C(OC)c2c(F)cccc2F)c(C)c(=O)[nH]1 (stereo unspecified)" assayed_target="Human immunodeficiency virus 1" recorded_result=5
compound=CCCN(C)c1nc([C@@H](OC)c2c(Cl)cccc2Cl)c(C)c(=O)[nH]1 assayed_target="Human immunodeficiency virus 1" recorded_result=2
compound="COC(c1nc(SC2CCCC2)[nH]c(=O)c1C)c1c(F)cccc1Cl (stereo unspecified)" assayed_target="Human immunodeficiency virus 1" recorded_result=21
compound="COC(c1nc(SC(C)C)[nH]c(=O)c1C)c1c(F)cccc1F (stereo unspecified)" assayed_target="Human immunodeficiency virus 1" recorded_result=16
compound="CCCNc1nc(C(C)c2c(F)cccc2F)c(C)c(=O)[nH]1 (stereo unspecified)" assayed_target="Human immunodeficiency virus 1" recorded_result=12
compound=CO[C@H](c1nc(SC(C)C)[nH]c(=O)c1C)c1c(F)cccc1Cl assayed_target="Human immunodeficiency virus 1" recorded_result=12
compound="COC(c1nc(NC(C)C)[nH]c(=O)c1C)c1c(F)cccc1Cl (stereo unspecified)" assayed_target="Human immunodeficiency virus 1" recorded_result=14
compound="COC(c1nc(NC2CCCC2)[nH]c(=O)c1C)c1c(Cl)cccc1Cl (stereo unspecified)" assayed_target="Human immunodeficiency virus 1" recorded_result=10
compound="Cc1c(C(C)c2c(F)cccc2F)nc(SC2CCCC2)[nH]c1=O (stereo unspecified)" assayed_target="Human immunodeficiency virus 1" recorded_result=60
compound=Cc1c([C@H](C)c2c(F)cccc2F)nc(SC2CCCC2)[nH]c1=O assayed_target="Human immunodeficiency virus 1" recorded_result=2

* * *

system: Human immunodeficiency virus type 1 reverse transcriptase (Human immunodeficiency virus 1), Q72547 [K103N]
Each entry below carries its recorded log10 ID50.
measurement.name: log10 ID50 (log10 of the value in nM)

molecule="COC(c1nc(SC2CCCC2)[nH]c(=O)c1C)c1c(Cl)cccc1Cl (stereo not drawn)" measurement_name="log10 ID50" recorded_result=4.09
molecule="Cc1c(O)nc(SC(C)C)nc1C(C)c1c(F)cccc1F (stereo not drawn)" measurement_name="log10 ID50" recorded_result=2.76
molecule="CCCNc1nc(C(OC)c2c(F)cccc2F)c(C)c(=O)[nH]1 (stereo not drawn)" measurement_name="log10 ID50" recorded_result=2.34
molecule=Cc1c([C@H](C)c2c(F)cccc2F)nc(SC2CCCC2)[nH]c1=O measurement_name="log10 ID50" recorded_result=1.00
molecule="CCC(C)Sc1nc(C(CC)c2c(F)cccc2F)c(C)c(=O)[nH]1 (stereo not drawn)" measurement_name="log10 ID50" recorded_result=2.15
molecule=Cc1cc(C#N)cc(C)c1Oc1nc(Nc2ccc(C#N)cc2)nc(N)c1Br measurement_name="log10 ID50" recorded_result=1.93
molecule=CCCN(C)c1nc([C@H](OC)c2c(Cl)cccc2Cl)c(C)c(=O)[nH]1 measurement_name="log10 ID50" recorded_result=1.20

* * *

tested on: Human immunodeficiency virus 1; experiment: Resistance index, ratio of ID50 for recombinant HIV-1 His-tagged reverse transcriptase p66/p51 Y181I mutant to ID50 for recombinant wild type HIV-1 reverse transcriptase His-tagged p66/p51
measurement.name: Ratio

compound="CCCN(C)c1nc(C(OC)c2c(F)cccc2Cl)c(C)c(=O)[nH]1 (configuration not stated)" measurement_name=Ratio recorded_result=42
compound="CCCN(C)c1nc(C(C)c2c(F)cccc2F)c(C)c(=O)[nH]1 (configuration not stated)" measurement_name=Ratio recorded_result=40
compound=CO[C@@H](c1nc(SC(C)C)[nH]c(=O)c1C)c1c(F)cccc1Cl measurement_name=Ratio recorded_result=550
compound=CCCN(C)c1nc([C@H](OC)c2c(Cl)cccc2Cl)c(C)c(=O)[nH]1 measurement_name=Ratio recorded_result=42
compound="Cc1c(C(C)c2c(F)cccc2F)nc(SC2CCCC2)[nH]c1=O (configuration not stated)" measurement_name=Ratio recorded_result=180
compound="COC(c1nc(SC2CCCC2)[nH]c(=O)c1C)c1c(F)cccc1Cl (configuration not stated)" measurement_name=Ratio recorded_result=543
compound="Cc1c(C(C)c2c(F)cccc2F)nc(NC(C)C)[nH]c1=O (configuration not stated)" measurement_name=Ratio recorded_result=101
compound="COC(c1nc(NC(C)C)[nH]c(=O)c1C)c1c(F)cccc1F (configuration not stated)" measurement_name=Ratio recorded_result=33
compound="COC(c1nc(SC(C)C)[nH]c(=O)c1C)c1c(F)cccc1F (configuration not stated)" measurement_name=Ratio recorded_result=1140
compound="CCC(C)Sc1nc(C(OC)c2c(F)cccc2F)c(C)c(=O)[nH]1 (configuration not stated)" measurement_name=Ratio recorded_result=1800
compound="CCCNc1nc(C(C)c2c(F)cccc2F)c(C)c(=O)[nH]1 (configuration not stated)" measurement_name=Ratio recorded_result=125

* * *

system: Human immunodeficiency virus 1; experiment: Antiviral activity against HIV-1 IRLL98 harboring reverse transcriptase M41L, D67N, Y181C, M184V, R211K, and T215Y mutants infected in human MT4 cells assessed as inhibition of virus-induced cytopathic effect after 5 days by MTT assay; type: functional, organism-based; details: Human immunodeficiency virus 1, IRLL98, MT4, 120 h
measurement.name: EC50 (nM)

compound="CCC(C)Sc1nc(O)c(C)c(C(C)c2c(F)cccc2F)n1 (stereo unspecified)" recorded_result=79
compound="CCC(c1nc(SC2CCCC2)[nH]c(=O)c1C)c1c(F)cccc1F (stereo unspecified)" recorded_result=750
compound="Cc1c(C(C)c2c(F)cccc2F)nc(NC(C)C)[nH]c1=O (stereo unspecified)" recorded_result=150
compound="Cc1c(C(C)c2c(F)cccc2F)nc(NC2CCCC2)[nH]c1=O (stereo unspecified)" recorded_result=85
compound="COC(c1nc(SC(C)C)[nH]c(=O)c1C)c1c(F)cccc1F (stereo unspecified)" recorded_result=520
compound="CCCN(C)c1nc(C(OC)c2c(Cl)cccc2Cl)c(C)c(=O)[nH]1 (stereo unspecified)" recorded_result=2
compound="CCC(C)Sc1nc(C(C)c2c(F)cccc2Cl)c(C)c(=O)[nH]1 (stereo unspecified)" recorded_result=95
compound="CCC(c1nc(SC(C)C)[nH]c(=O)c1C)c1c(F)cccc1F (stereo unspecified)" recorded_result=280
compound="CCCN(C)c1nc(C(C)c2c(F)cccc2F)c(C)c(=O)[nH]1 (stereo unspecified)" recorded_result=7
compound="Cc1c(C(C)c2c(F)cccc2Cl)nc(SC2CCCC2)[nH]c1=O (stereo unspecified)" recorded_result=68
compound="CCCNc1nc(C(OC)c2c(F)cccc2F)c(C)c(=O)[nH]1 (stereo unspecified)" recorded_result=16

Numbers sourced from ChEMBL document CHEMBL4371047.
